Provenance of the data: paper PMC8470823

Give IC50 for every item shown.
System: L-6 cells
Experiment: In vitro cytotoxicity with L-6 cells (Alamar Blue)
Format: cell-based, rat
Conditions: rat, 72 h
Experimental: Serial drug dilutions of 11 3-fold dilution steps covering a range from 100 to 0.002 μg/mL were prepared. After 70 h of incubation, the plates were inspected under an inverted microscope to assure the growth of the controls and sterile conditions. […] The plates were read with a Spectramax Gemini XS microplate fluorometer (Molecular Devices Cooperation, Sunnyvale, CA, USA) using an excitation wavelength of 536 nm and an emission wavelength of 588 nm. […]

Memo: COc1cc(NC(c2ccc(C(C)C)cc2)c2nnnn2C(C)(C)C)c2ncccc2c1 (centres unmarked) [Compound 20] , reported IC50: 119 µM

Memo: COc1cc(NC(c2ccc(F)cc2)c2nnnn2C(C)(C)C)c2ncccc2c1 (centres unmarked) [Compound 15] , reported IC50: 124 µM

* * *

Assay: In vitro cytotoxicity with L-6 cells (Alamar Blue)
Type: cell-based, rat
Conditions: rat, Cytotoxicity L-6 Cells IC50
I'd appreciate it if you could label each record using IC50 at 72 h and these ranges: bucket 1 (below 60 µM), bucket 2 (60 µM to below 100 µM), bucket 3 (100 µM or more)

Q: Lab log: COc1cc(NC(c2ccccc2)c2nnnn2C(C)(C)C)c2ncccc2c1 (stereo not drawn) — assign IC50 at 72 h category
A: bucket 1

Q: Lab log: CCCCCCCC(Nc1cc(OC)cc2cccnc12)c1nnnn1C(C)(C)C (stereo not drawn) — assign IC50 at 72 h category
A: bucket 1

Q: Lab log: COc1cc(NC(c2ccc(Cl)cc2)c2nnnn2C(C)(C)C)c2ncccc2c1 (stereo not drawn) — assign IC50 at 72 h category
A: bucket 3

Q: Lab log: COc1cc(NC(c2ccc(C)cc2)c2nnnn2C(C)(C)C)c2ncccc2c1 (stereo not drawn) — assign IC50 at 72 h category
A: bucket 3

Q: Lab log: COc1cc(NCCNC(c2ccc(Cl)cc2)c2nnnn2C(C)(C)C)c2ncccc2c1 (stereo not drawn) — assign IC50 at 72 h category
A: bucket 2

Q: Lab log: COc1cc(NCCNC(c2ccc(Br)cc2)c2nnnn2C(C)(C)C)c2ncccc2c1 (stereo not drawn) — assign IC50 at 72 h category
A: bucket 1

Q: Lab log: COc1cc(NC(c2ccc(C(F)(F)F)cc2)c2nnnn2C(C)(C)C)c2ncccc2c1 (stereo not drawn) — assign IC50 at 72 h category
A: bucket 3

Q: Lab log: CCC(NCCNc1cc(OC)cc2cccnc12)c1nnnn1C(C)(C)C (stereo not drawn) — assign IC50 at 72 h category
A: bucket 3

Q: Lab log: COc1cc(NC(c2ccc(Br)cc2)c2nnnn2C(C)(C)C)c2ncccc2c1 (stereo not drawn) — assign IC50 at 72 h category
A: bucket 2

Q: Lab log: COc1cc(NCCNC(c2ccccc2)c2nnnn2C(C)(C)C)c2ncccc2c1 (stereo not drawn) — assign IC50 at 72 h category
A: bucket 1

Q: Lab log: COc1cc(NC(c2cccc3ccccc23)c2nnnn2C(C)(C)C)c2ncccc2c1 (stereo not drawn) — assign IC50 at 72 h category
A: bucket 3

Q: Lab log: COc1cc(NCCNC(c2ccc(F)cc2)c2nnnn2C(C)(C)C)c2ncccc2c1 (stereo not drawn) — assign IC50 at 72 h category
A: bucket 1

Q: Lab log: CCC(Nc1cc(OC)cc2cccnc12)c1nnnn1C(C)(C)C (stereo not drawn) — assign IC50 at 72 h category
A: bucket 2

* * *

Test system: P. falciparum NF54
Test: In vitro microplate assay against P. falciparum (3H-hypoxanthine incorporation)
Assay type: cell-based, Plasmodium falciparum
Conditions: Plasmodium falciparum; chloroquine-sensitive strain NF54, erythrocytic stages; average of four determinations; read-out: P.f. NF54 IC50
pIC50: −log10 of the molar value.
Mark Not met for pIC50 values under 6, and Met for everything at or above.

Q: I'd appreciate it if you could say whether COc1cc(NC(c2ccc(C(C)C)cc2)c2nnnn2C(C)(C)C)c2ncccc2c1 (stereo not drawn) [Compound 20] has pIC50 at least equal to 6.
A: Not met

Q: I'd appreciate it if you could say whether COc1cc(NCCNC(c2ccc(Br)cc2)c2nnnn2C(C)(C)C)c2ncccc2c1 (stereo not drawn) [Compound 11] has pIC50 at least equal to 6.
A: Not met

Q: I'd appreciate it if you could say whether COc1cc(NCCNC(c2ccc(Cl)cc2)c2nnnn2C(C)(C)C)c2ncccc2c1 (stereo not drawn) [Compound 10] has pIC50 at least equal to 6.
A: Not met

Q: I'd appreciate it if you could say whether COc1cc(NC(c2ccccc2)c2nnnn2C(C)(C)C)c2ncccc2c1 (stereo not drawn) [Compound 14] has pIC50 at least equal to 6.
A: Not met

Q: I'd appreciate it if you could say whether COc1cc(NC(c2ccc(F)cc2)c2nnnn2C(C)(C)C)c2ncccc2c1 (stereo not drawn) [Compound 15] has pIC50 at least equal to 6.
A: Not met

Q: I'd appreciate it if you could say whether CCCCCCCC(Nc1cc(OC)cc2cccnc12)c1nnnn1C(C)(C)C (stereo not drawn) [Compound 22] has pIC50 at least equal to 6.
A: Met

Q: I'd appreciate it if you could say whether COc1cc(NC(c2ccc(C(F)(F)F)cc2)c2nnnn2C(C)(C)C)c2ncccc2c1 (stereo not drawn) [Compound 18] has pIC50 at least equal to 6.
A: Met

Q: I'd appreciate it if you could say whether COc1cc(NCCNC(c2ccc(F)cc2)c2nnnn2C(C)(C)C)c2ncccc2c1 (stereo not drawn) [Compound 9] has pIC50 at least equal to 6.
A: Not met

Q: I'd appreciate it if you could say whether COc1cc(NCCNC(c2ccccc2)c2nnnn2C(C)(C)C)c2ncccc2c1 (stereo not drawn) [Compound 8] has pIC50 at least equal to 6.
A: Not met

Q: I'd appreciate it if you could say whether COc1cc(NC(c2ccc(Br)cc2)c2nnnn2C(C)(C)C)c2ncccc2c1 (stereo not drawn) [Compound 17] has pIC50 at least equal to 6.
A: Met

Q: I'd appreciate it if you could say whether CCC(Nc1cc(OC)cc2cccnc12)c1nnnn1C(C)(C)C (stereo not drawn) [Compound 13] has pIC50 at least equal to 6.
A: Not met

Q: I'd appreciate it if you could say whether CCC(NCCNc1cc(OC)cc2cccnc12)c1nnnn1C(C)(C)C (stereo not drawn) [Compound 7] has pIC50 at least equal to 6.
A: Not met

* * *

Assay: In vitro cytotoxicity with L-6 cells (Alamar Blue)
Assay type: cell-based, rat
Conditions: rat skeletal myoblasts; average of four determinations; read-out: Cytotoxicity L-6 Cells IC50
PROPERTY NAME: IC50 at 72 h (µM)
// units = µM; emit number, no label

Memo: CCN(CC)CCCC(C)Nc1ccnc2cc(Cl)ccc12 (stereo not shown) [CQ, chloroquine, reference compound] , reported IC50 at 72 h: 90.9

* * *

Tested on: P. falciparum NF54
Assay: In vitro microplate assay against P. falciparum (3H-hypoxanthine incorporation)
Format: cell-based, Plasmodium falciparum
Conditions: Plasmodium falciparum; chloroquine-sensitive strain NF54, erythrocytic stages; average of four determinations; read-out: P.f. NF54 IC50
PROPERTY NAME: IC50 (nM)
// units = nM; emit number, no label

Memo: COc1cc(NC(c2cccc3ccccc23)c2nnnn2C(C)(C)C)c2ncccc2c1 (stereo not drawn) , reported IC50: 1260

Memo: COc1cc(NC(c2ccc(C)cc2)c2nnnn2C(C)(C)C)c2ncccc2c1 (stereo not drawn) , reported IC50: 1040

Memo: COc1cc(NC(c2ccc(Cl)cc2)c2nnnn2C(C)(C)C)c2ncccc2c1 (stereo not drawn) , reported IC50: 743
